These entries and their values trace back to paper PMC11678766.

This section presents compounds with their documented pKi values.
- system: SEX4 (Arabidopsis thaliana, UniProt Q9FEB5)
- Construct: gift from Dr. Gentry's group, University of Kentucky College of Medicine
- Sequence (Q9FEB5 90-379 limits assumed): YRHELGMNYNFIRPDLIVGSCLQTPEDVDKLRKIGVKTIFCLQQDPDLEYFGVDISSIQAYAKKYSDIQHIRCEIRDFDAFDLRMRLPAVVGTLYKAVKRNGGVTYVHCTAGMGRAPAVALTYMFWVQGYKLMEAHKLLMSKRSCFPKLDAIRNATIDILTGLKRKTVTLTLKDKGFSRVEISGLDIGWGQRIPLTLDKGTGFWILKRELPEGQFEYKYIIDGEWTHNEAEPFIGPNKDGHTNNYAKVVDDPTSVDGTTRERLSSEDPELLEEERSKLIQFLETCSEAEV
- test-summary: Phosphatase assay against pNPP, SEX4
- Format: biochemical
- measurement-conditions: pNPP 0.5–50 mM, inhibitor at IC50 concentration; average ± standard error of three measurements; read-out: Ki, pNPP assay, SEX4
Please express pKi as -log10 of the molar concentration.

Recorded results for 4 compounds are shown here.
compound	pKi
CC(C)=CCc1c(-c2ccc(O)cc2O)oc2c(C3C=C(C)CC(C(=O)c4ccc(O)cc4O)C3c3ccc(O)cc3O)c(O)cc(O)c2c1=O (centres unmarked) [Compound H08, Moracenin B]	4.68
CCCc1c(O)nc2[nH]c(=O)sc2c1C [Compound D04]	4.59
CCCCCC/C=C\CCCCCCCc1cccc(O)c1C(=O)O [Compound F05, Ginkgolic acid]	5.16
O=C(O)c1cc(O)c2c(c1)[C@@H]([C@@H]1c3cc(C(=O)O)cc(O)c3C(=O)c3c(OC4OC(CO)C(O)C(O)C4O)cccc31)c1cccc(OC3OC(CO)C(O)C(O)C3O)c1C2=O (some centres unmarked) [Compound G11, Sennoside]	4.47

// next item, pKi requested
QUERY: Reported pKi for SEX4 (Arabidopsis thaliana, UniProt Q9FEB5), given Cc1c(O)nc2[nH]c(=O)sc2c1C [Compound H03] ?
RESULT: 4.37
